Assay: Dimensions (size, PDI) of DNPs co-assembled from IAJDs and Luc-mRNA by DLS
Type: physicochemical
Conditions: Table 17; DNPs used in vivo, IAJD 4 mg/mL, Luc-mRNA 0.10 mg/mL, acetate pH 4.0
measured.property: PDI

- molecular.string: "CCCCCCCCCCCCCCCOc1cc(COC(=O)CCCN2CCN(CCO)CC2)cc(OCCCCCCCCCCCC)c1"
  PDI: 0.432
- molecular.string: "CCCCCCCCCCCCCCCOc1cc(COC(=O)CCCN2CCN(C)CC2)cc(OCCCCCCCCCCCC)c1"
  PDI: 0.270
- molecular.string: "CCCCCCCCCCCCCCCOc1cc(COC(=O)CCCN2CCN(CCO)CC2)cc(OCCCCCCCC)c1"
  PDI: 0.305

---

Assay: Dimensions (size, PDI) of DNPs co-assembled from IAJDs and Luc-mRNA by DLS
Type: physicochemical
Details: Table 16; DNPs from IAJD 4 mg/mL and Luc-mRNA 0.10 mg/mL by injection in acetate buffer (10 mM, pH 4.0)
measured.property: Size (d, nm)

Recorded results for 4 compounds are shown here.
- compound: "CCCCCCCCCCCCCCCCCOc1cc(CNC(=O)c2cc(OCCOCCOCCOC(=O)CCCN3CCCCC3)c(OCCCOCOCCOCc3ccccc3)c(OCCOCCOCCOC(=O)CCCN3CCCCC3)c2)cc(OCCCCCCCCCCCCCCCCC)c1"
  result: 91
- compound: "CCCCCCCCCCCCCCCCCOc1cc(COC(=O)c2cc(OCCOCCOCCCC(=O)CCCN3CCCCC3)c(OCCOCCOCCOCc3ccccc3)c(OCCOCCOCCOC(=O)CCCN3CCCCC3)c2)cc(OCCCCCCCCCCC)c1"
  result: 75
- compound: "CCCCCCCCCCCCCCCCCOc1cc(COC(=O)CCCN2CCN(C)CC2)cc(OCCCCCCCCCCCCCCC)c1"
  result: 287
- compound: "CCCCCCCCCCCCCCCCOc1cc(COC(=O)CCCN2CCN(CCO)CC2)cc(OCCCCCCCCCCCCCCC)c1"
  result: 285

A = CCCCCCCCCCCCCCCOc1cc(COC(=O)CCCN2CCN(CCO)CC2)cc(OCCCCCCCCCCCCC)c1
B = CCCCCCCCCCCOc1cc(COC(=O)CCCN2CCN(C)CC2)cc(OCCCCCCCCCC)c1
C = CCCCCCCCCCCCCOc1cc(COC(=O)CCCN2CCN(C)CC2)cc(OCCCCCCCCCCC)c1
Sort (3 compounds) by Size (d, nm): min first. Write the labels in rank order as requested. B, C, A

---

PDI values by entry
Assay: DLS size of dendrimersomes assembled from glycerol-JDs in water at different concentrations
Type: physicochemical
Conditions: JD 0.2 mg·mL−1 in water
Description: Assembly of all eight glycerol-JDs was performed by injection of their ethanol solution (50 μL) into 1 mL of Milli-Q water. The size distribution and structure of resulting DSs were analyzed by DLS (FIG. 84) and cryo-TEM. […] In a certain concentration range the size of DSs increased with the concentration of JDs injected in water or buffer. […] The dimensions of the assemblies were identical when the concentrations of the JDs in water were identical. […]
Respond using a number only.

- molecule: "CCCCCCCCCCCCOc1cc(OCCCCCCCCCCCC)cc(C(=O)OC[C@@H](COC(=O)C(C)(COC(=O)c2cc(OCCOCCOCCOC)c(OCCOCCOCCOC)c(OCCOCCOCCOC)c2)COC(=O)c2cc(OCCOCCOCCOC)c(OCCOCCOCCOC)c(OCCOCCOCCOC)c2)OC(=O)c2cc(OCCCCCCCCCCCC)cc(OCCCCCCCCCCCC)c2)c1 [Compound 1S, (3,5)-12G1-GC-(S)-BMPA-(3,4,5)-3EO-G1]"
  PDI: 0.195
- molecule: "CCCCCCCCCCCCOc1cc(OCCCCCCCCCCCC)cc(C(=O)OCC(COC(=O)C(C)(COC(=O)c2cc(OCCOCCOCCOC)c(OCCOCCOCCOC)c(OCCOCCOCCOC)c2)COC(=O)c2cc(OCCOCCOCCOC)c(OCCOCCOCCOC)c(OCCOCCOCCOC)c2)OC(=O)c2cc(OCCCCCCCCCCCC)cc(OCCCCCCCCCCCC)c2)c1 (racemic) [Compound 1rac, (3,5)-12G1-GC-(rac)-BMPA-(3,4,5)-3EO-G1]"
  PDI: 0.216
- molecule: "CCCCCCCCCCCCOc1cc(OCCCCCCCCCCCC)cc(C(=O)OCC(C)(COC(=O)c2cc(OCCCCCCCCCCCC)cc(OCCCCCCCCCCCC)c2)C(=O)OC[C@H](COC(=O)c2cc(OCCOCCOCCOC)c(OCCOCCOCCOC)c(OCCOCCOCCOC)c2)OC(=O)c2cc(OCCOCCOCCOC)c(OCCOCCOCCOC)c(OCCOCCOCCOC)c2)c1 [Compound 2S, (3,5)-12G1-BMPA-GC-(S)-(3,4,5)-3EO-G1]"
  PDI: 0.203

CCCCCCCCCCCCOc1cc(OCCCCCCCCCCCC)cc(C(=O)OC[C@H](COC(=O)C(C)(COC(=O)c2cc(OCCOCCOCCOC)c(OCCOCCOCCOC)c(OCCOCCOCCOC)c2)COC(=O)c2cc(OCCOCCOCCOC)c(OCCOCCOCCOC)c(OCCOCCOCCOC)c2)OC(=O)c2cc(OCCCCCCCCCCCC)cc(OCCCCCCCCCCCC)c2)c1 [Compound 1R, (3,5)-12G1-GC-(R)-BMPA-(3,4,5)-3EO-G1] has a reported PDI of 0.175
